experiment: Quantitative High-Throughput drug screen in 47 multiple myeloma cell lines against the NCATS MIPE library collection: EJM_DSMZ cell viability assay (AID 1918926; further: nearly all actives have a fitted effect of over 30% in size; further: potency means the concentration at half of the fitted maximal effect); settings: EJM myeloma cell viability, CellTiter-Glo ATP, 48 h; series mostly up to 45.8 µM
Records with an inconclusive call do not appear. Activity calls are given as the source filed them. The call rests on the fitted dose curve; in most records, active means well fitted cell-killing curve with a large enough effect; inconclusive means small, poorly fitted or top-dose-only effect, or effect the other way; inactive means no such curve, though single readings can be large or run the other way.
quantity_kind: Potency

compound	test_result
NC(=O)c1cnc(-c2ccc(C3(N)CCC3)cc2)c(-c2ccccc2)c1	1.66 µM (active)
CN(C)c1cc(NC(=O)CNC(C)(C)C)c(O)c2c1C[C@@H]1C[C@H]3[C@H](N(C)C)C(=O)C(C(N)=O)=C(O)[C@@]3(O)C(=O)C1=C2O	inactive
COc1cc2nc(-c3ccc(N4CCN(C)CC4)cc3)nc(NCCN3CCOCC3)c2cc1OC	0.0264 µM (active)
CCOC(CN1C(=O)[C@](CC(=O)Nc2ccc(C)cc2)(NC(=O)Nc2ccc(C)cc2)c2ccccc21)OCC	inactive
C[C@@H]1CCN(C(=O)CC#N)C[C@H]1N(C)c1ncnc2[nH]ccc12	inactive

Ask: Name the recorded Potency of the item C=C1C(=O)[C@@]23C(CC[C@@H]1[C@H]2O)[C@@]12CO[C@]3(O)[C@@H](O)[C@@H]1C(C)(C)CC[C@@H]2O (stereo partly drawn) in your answer.
Result: 2.96 µM (active)

Ask: Name the recorded Potency of the item `N#C[C@H]1C[C@H]2C[C@@H]2N1C(=O)[C@@H](N)C12CC3CC(CC(O)(C3)C1)C2` in your answer.
Result: inactive

Ask: Name the recorded Potency of the item `CC(C)n1cnc2c(NCCCCCCNC(=O)OC(C)(C)C)nc(NCCO)nc21` in your answer.
Result: 20.9 µM (active)

---

assay: Quantitative High-Throughput drug screen in 47 multiple myeloma cell lines against the NCATS MIPE library collection: H1112_PLB cell viability assay (AID 1918967; further: nearly all actives have a fitted effect of over 30% in size); conditions: H1112 myeloma cells viability, ATP luminescence, 48 h; series mostly up to 45.8 µM
Results filed as inconclusive are left out. The source made the active and inactive calls. Calls come from the whole dose curve; as a rule, active = well fitted cell-killing curve with a large enough effect; inconclusive = small, poorly fitted or top-dose-only effect, or effect the other way; inactive = no such curve, though single readings can be large or run the other way.
Thanks in advance; please answer with one of these: true = active, false = inactive

Ask: Recorded test call requested for `OC[C@H]1O[C@@H](n2cnc3c2NC=NC[C@@H]3O)C[C@H]1O`
Result: true

Ask: Recorded test call requested for `Cn1cc(C=C2C(=O)Nc3cccnc32)c2ccccc21`
Result: false

Ask: Recorded test call requested for `CC(C)C(=O)Oc1ccc(CO)cc1[C@H](CCN(C(C)C)C(C)C)c1ccccc1`
Result: false

Ask: Recorded test call requested for `CC=C(C)C(=O)O[C@H]1C(C)=C[C@]23C(=O)[C@@H](C=C(CO)[C@@H](O)[C@]12O)[C@H]1[C@@H](C[C@H]3C)C1(C)C`
Result: true

Ask: Recorded test call requested for `CC(C)C[C@H](CC(=O)O)C(=O)N[C@@H](Cc1c[nH]c2ccccc12)C(=O)N[C@@H](C)c1ccccc1`
Result: false

Ask: Recorded test call requested for `O=C(N[C@@H](c1ccccc1)[C@@H]1CCCCN1)c1cccc(C(F)(F)F)c1Cl`
Result: true

Ask: Recorded test call requested for `O=C(NC1CCOCC1)c1ccc(-c2cc(-c3cn[nH]c3-c3ccccn3)ccn2)cc1`
Result: false

Ask: Recorded test call requested for `O=C(O)c1cc(O)c2c(c1)C(=O)c1cccc(O)c1C2=O`
Result: false

Ask: Recorded test call requested for `CO[C@H]1C(=O)[C@]2(C)[C@@H](OC)C[C@H]3OC[C@@]3(OC(C)=O)[C@H]2[C@H](OC(=O)c2ccccc2)[C@]2(O)C[C@H](OC(=O)[C@H](O)[C@@H](NC(=O)OC(C)(C)C)c3ccccc3)C(C)=C1C2(C)C`
Result: false

Ask: Recorded test call requested for `O=c1cc(-c2ccccc2)oc2cc(O)c(O)c(O)c12`
Result: true

Ask: Recorded test call requested for `CCn1c(C(=O)N(C2CC2)C2CC2)cc2c3c(ncn3C)c(Nc3cc(C)n(C)n3)nc21`
Result: true

Ask: Recorded test call requested for `O=c1c(O)c(-c2ccc(O)cc2)oc2cc(O)cc(O)c12`
Result: true

Ask: Recorded test call requested for O=C(NOCC(O)CO)c1cc(Br)c(F)c(F)c1Nc1ccc(I)cc1F (stereo not drawn)
Result: true

Ask: Recorded test call requested for `O=C(Nc1cc(Cl)cc2c1[nH]c1cnccc12)c1cccnc1`
Result: true

Ask: Recorded test call requested for `CC[C@H]1OC(=O)[C@H](C)C(=O)[C@H](C)[C@@H](O[C@H]2O[C@H](C)C[C@H](N(C)C)[C@@H]2O)[C@](C)(OC)C[C@@H](C)C(=O)[C@H](C)[C@H]2N(CCCCn3cnc(-c4cccnc4)c3)C(=O)O[C@]12C`
Result: true

Ask: Recorded test call requested for CNC(=O)c1ccc2cc(C3(O)CCn4cncc43)ccc2c1 (stereo not drawn)
Result: false

Ask: Recorded test call requested for `COc1cc2ncnc(-n3nc(-c4ccccn4)nc3N)c2cc1OC`
Result: true

Ask: Recorded test call requested for `NC(=O)c1cnc(-c2ccc(C3(N)CCC3)cc2)c(-c2ccccc2)c1`
Result: true

Ask: Recorded test call requested for `O=c1ccn([C@@H]2O[C@H](CO)[C@H](O)[C@H]2O)c(=O)[nH]1`
Result: false

Ask: Recorded test call requested for `CC1(C)CCC(CN2CCN(c3ccc(C(=O)NS(=O)(=O)c4ccc(NCC5CCOCC5)c([N+](=O)[O-])c4)c(Oc4cnc5[nH]ccc5c4)c3)CC2)=C(c2ccc(Cl)cc2)C1`
Result: true

Ask: Recorded test call requested for `CC[C@@H]1C=C(C)C[C@H](C)C[C@H](OC)[C@H]2O[C@@](O)(C(=O)C(=O)N3CCCC[C@@H]3C(=O)O[C@H](C(C)=C[C@@H]3CC[C@H](Cl)[C@H](OC)C3)[C@H](C)[C@@H](O)CC1=O)[C@H](C)C[C@H]2OC`
Result: true

Ask: Recorded test call requested for `CN(C)Cc1ccc(-c2nc3cccc4c3n2CCNC4=O)cc1`
Result: true

Ask: Recorded test call requested for `CC[C@@]1(O)C[C@H](O[C@H]2C[C@H](N(C)C)[C@H](O[C@H]3C[C@H](O)[C@H](O[C@H]4CCC(=O)[C@H](C)O4)[C@H](C)O3)[C@H](C)O2)c2c(cc3c(c2O)C(=O)c2c(O)cccc2C3=O)[C@@H]1C(=O)OC`
Result: true

Ask: Recorded test call requested for `CC(C)(C)Cn1c(N)nc2ccc(-c3[nH]c(C(C)(C)C)nc3-c3ccc(F)cc3)nc21`
Result: true

Ask: Recorded test call requested for `CC(C)=CC[C@@H](O)C1=CC(=O)c2c(O)ccc(O)c2C1=O`
Result: true

Ask: Recorded test call requested for `CCn1cc(C(=O)O)c(=O)c2ccc(C)nc21`
Result: false

Ask: Recorded test call requested for C[C@]12CCC3c4ccc(O)cc4CCC3C1CCC2=O (stereo partly drawn)
Result: false

Ask: Recorded test call requested for `Cn1c(N2CCCCS2(=O)=O)nc(C(=O)NCc2ccc(F)cc2)c(O)c1=O`
Result: false

Ask: Recorded test call requested for `Cc1ccc(Nc2cc(-c3cccc(N4C(=O)c5ccccc5C4=O)c3)ncn2)cc1NS(C)(=O)=O`
Result: true

Ask: Recorded test call requested for `CO[C@H]1C=CC=C(C)C(=O)NC2=CC(=O)C(NCCN(C)C)=C(C[C@@H](C)C[C@H](OC)[C@@H](O)[C@@H](C)C=C(C)[C@@H]1OC(N)=O)C2=O`
Result: true

Ask: Recorded test call requested for `COc1ccc2c(Oc3ccc(NC(=O)c4c(C)n(CC(C)(C)O)n(-c5ccccc5)c4=O)cc3F)ccnc2c1`
Result: true

Ask: Recorded test call requested for `CCC(CC)[C@H](NC(C)=O)[C@@H]1[C@H](O)[C@@H](C(=O)O)C[C@@H]1N=C(N)N`
Result: false

Ask: Recorded test call requested for `O=c1c(-c2ccc(O)cc2)coc2cc(O[C@@H]3O[C@H](CO)[C@H](O)[C@H](O)[C@H]3O)ccc12`
Result: false
